# assay-target: UniProt Q72874
# experiment-description: Compound was tested for inhibitory activity against HIV-1 protease
Threshold 5 µM: IC50 strictly smaller gives 1 (yes), otherwise 0 (no).

1) CO[C@@H]1OC2COC(c3ccccc3)O[C@H]2C(OCc2ccccc2)[C@H]1O (stereo not given in full)
1 (yes)
2) COc1ccc(O[C@@H]2C(CNC(=O)OCc3ccccc3)O[C@@H](OC)[C@H](O)C2OCc2ccccc2)cc1 (stereo not given in full)
1 (yes)
3) COc1ccc(O[C@@H]2C(CNC(C)=O)O[C@@H](OC)[C@H](O)C2OCc2ccccc2)cc1 (stereo not given in full)
0 (no)
4) CC(=O)NCC1O[C@@H](Oc2ccccc2)C(O)C(O)[C@@H]1O (single isomer, unassigned)
0 (no)
5) CO[C@@H]1OC(CNC(=O)OCc2ccccc2)[C@@H](O)C(OCc2ccccc2)[C@H]1O (stereo not given in full)
1 (yes)
